- ASSAYED_SYSTEM: Vascular endothelial growth factor receptor 2 (Homo sapiens, UniProt P35968)
- Sequence (P35968 whole entry): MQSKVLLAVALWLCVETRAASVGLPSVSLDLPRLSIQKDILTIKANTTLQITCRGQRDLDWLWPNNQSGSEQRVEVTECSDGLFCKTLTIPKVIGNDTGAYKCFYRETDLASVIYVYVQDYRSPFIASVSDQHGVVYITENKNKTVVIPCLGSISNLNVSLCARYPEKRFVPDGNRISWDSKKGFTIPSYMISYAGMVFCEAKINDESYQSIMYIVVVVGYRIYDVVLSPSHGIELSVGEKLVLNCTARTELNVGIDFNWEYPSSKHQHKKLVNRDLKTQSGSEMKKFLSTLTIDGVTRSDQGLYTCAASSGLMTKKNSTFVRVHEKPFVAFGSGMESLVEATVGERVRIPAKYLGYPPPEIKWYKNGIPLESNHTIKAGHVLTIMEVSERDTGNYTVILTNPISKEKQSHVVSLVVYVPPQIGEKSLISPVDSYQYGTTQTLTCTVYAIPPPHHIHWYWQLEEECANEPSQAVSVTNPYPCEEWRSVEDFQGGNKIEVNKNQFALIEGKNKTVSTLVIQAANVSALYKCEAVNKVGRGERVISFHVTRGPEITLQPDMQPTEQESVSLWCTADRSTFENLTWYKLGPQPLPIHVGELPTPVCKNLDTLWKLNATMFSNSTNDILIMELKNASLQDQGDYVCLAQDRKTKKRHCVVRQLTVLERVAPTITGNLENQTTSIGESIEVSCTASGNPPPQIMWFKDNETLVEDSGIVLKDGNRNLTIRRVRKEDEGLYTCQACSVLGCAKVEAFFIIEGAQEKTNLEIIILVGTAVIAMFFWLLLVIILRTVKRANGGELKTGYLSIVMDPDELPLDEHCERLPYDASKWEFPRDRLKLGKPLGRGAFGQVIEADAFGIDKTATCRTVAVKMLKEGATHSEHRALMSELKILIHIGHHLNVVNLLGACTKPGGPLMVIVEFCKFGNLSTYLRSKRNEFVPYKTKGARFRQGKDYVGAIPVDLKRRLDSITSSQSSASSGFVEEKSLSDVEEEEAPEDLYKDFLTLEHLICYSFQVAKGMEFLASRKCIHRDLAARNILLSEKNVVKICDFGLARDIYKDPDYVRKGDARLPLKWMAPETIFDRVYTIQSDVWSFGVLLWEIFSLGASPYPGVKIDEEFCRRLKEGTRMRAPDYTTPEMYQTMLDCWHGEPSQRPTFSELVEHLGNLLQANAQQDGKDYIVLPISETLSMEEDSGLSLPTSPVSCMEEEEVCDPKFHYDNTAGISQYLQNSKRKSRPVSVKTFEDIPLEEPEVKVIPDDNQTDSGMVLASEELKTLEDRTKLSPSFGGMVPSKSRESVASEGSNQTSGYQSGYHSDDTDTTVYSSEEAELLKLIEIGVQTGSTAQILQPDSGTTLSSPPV
- EXPERIMENTAL_DETAILS: Inhibition of phosphorylated-Kdr after 30 mins
Note to self: use Criterion met only for Ki readings below 100 nM; a reading exactly at 100 nM still gets Criterion not met.

> print(dat)
                                    compound       answer.label
 1  O=C(Nc1ccc(Cl)cc1)c1cc(Br)cnc1NCc1ccncc1  Criterion not met
 2  O=C(Nc1ccc(C2CCCCC2)cc1)c1cccnc1NCc1ccncc1      Criterion met
 3  CCOC(=O)c1coc(-c2cccc(NC(=O)c3cccnc3NCc3ccncc3)c2)c1      Criterion met
 4  O=C(Nc1ccc(Cl)cc1)C1CCCCC1NCc1ccncc1 (stereo not given)  Criterion not met
 5  O=C(Nc1ccc(Oc2ccccc2)cc1)c1cccnc1NCc1ccc(F)cc1  Criterion not met
 6      O=C(Nc1cccc(Cl)c1)c1cccnc1NCc1ccncc1      Criterion met
 7  CC(O)c1cccc(NC(=O)c2cccnc2NCc2ccncc2)c1 (stereo not given)  Criterion not met
 8  CN1CCN(c2ccc(NC(=O)c3cccnc3NCc3ccncc3)cc2)CC1  Criterion not met
 9      CCc1cccc(NC(=O)c2cccnc2NCc2ccncc2)c1  Criterion not met
10  O=C(Nc1ccc(C(F)(F)F)cc1)c1cccnc1NCc1ccncc1      Criterion met
